molecular target: Human plasma kallikrein (Homo sapiens, UniProt P03952); construct: yields a heavy chain (371 amino acids) and a light chain (248 amino acids); assay: Kallikrein Assay (fluorogenic substrate hydrolysis, AFC release); settings: purified Human plasma kallikrein 0.5 nM; substrate Acetyl-K—P—R-AFC 100 mM; 50 mM HEPES pH 7.4
Sequence (P03952 391-638 limits assumed): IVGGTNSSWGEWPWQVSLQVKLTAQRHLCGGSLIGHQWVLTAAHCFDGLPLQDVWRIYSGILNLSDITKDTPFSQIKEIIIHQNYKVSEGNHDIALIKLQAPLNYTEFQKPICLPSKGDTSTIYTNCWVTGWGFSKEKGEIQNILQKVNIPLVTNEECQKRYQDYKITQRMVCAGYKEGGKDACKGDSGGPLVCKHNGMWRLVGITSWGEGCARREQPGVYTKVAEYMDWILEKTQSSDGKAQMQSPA
Sequence (P03952 20-390 partner limits assumed): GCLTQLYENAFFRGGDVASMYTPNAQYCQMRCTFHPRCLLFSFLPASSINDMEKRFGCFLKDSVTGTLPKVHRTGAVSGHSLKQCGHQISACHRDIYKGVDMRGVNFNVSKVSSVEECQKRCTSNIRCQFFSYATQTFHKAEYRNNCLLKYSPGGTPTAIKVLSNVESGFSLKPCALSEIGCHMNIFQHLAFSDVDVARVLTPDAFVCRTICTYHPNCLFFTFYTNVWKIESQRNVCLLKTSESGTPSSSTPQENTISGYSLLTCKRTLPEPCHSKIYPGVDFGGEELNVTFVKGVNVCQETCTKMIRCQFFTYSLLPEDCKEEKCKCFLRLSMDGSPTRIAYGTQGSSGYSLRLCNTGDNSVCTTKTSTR
Examples of compounds with documented IC50 follow.
Answer in nM, number only, no unit symbol.

Input line: Give IC50; test system Human plasma kallikrein (Homo sapiens, UniProt P03952); compound Cc1c(C(C)n2cc(C(=O)NC3CC(c4cccc(Cl)c4)C3O)nn2)nnc(N2C[C@H]3C[C@H]3C2=O)c1C (single isomer, unassigned) [Example 129]
Output line: 839

Input line: Give IC50; test system Human plasma kallikrein (Homo sapiens, UniProt P03952); compound Cc1c(C(C)n2cc(C(=O)N[C@H]3C[C@@H](c4cc(Cl)ccc4C#N)C3)cn2)nnc(N2C[C@H]3C[C@H]3C2=O)c1C (single isomer, unassigned) [Example 41]
Output line: 15.8

Input line: Give IC50; test system Human plasma kallikrein (Homo sapiens, UniProt P03952); compound Cc1cc(N2C[C@H]3C[C@H]3C2=O)cnc1C(C)n1cc(C(=O)N[C@H]2C[C@@H](c3cc(Cl)ccc3C#N)C2)cn1 (single isomer, unassigned) [Example 24]
Output line: 5.1

Input line: Give IC50; test system Human plasma kallikrein (Homo sapiens, UniProt P03952); compound Cc1ccc(C#N)c([C@H]2C[C@@H](NC(=O)c3cn(C(C)c4cnc(N5C[C@H]6C[C@H]6C5=O)c(F)c4C)nn3)C2)c1 (single isomer, unassigned) [Example 119]
Output line: 26

Below: the item to evaluate.
Input line: Give IC50; test system Human plasma kallikrein (Homo sapiens, UniProt P03952); compound Cc1ccc(C#N)c([C@H]2C[C@@H](NC(=O)c3cn(C(C)c4cnc(N5C[C@H]6C[C@H]6C5=O)c(F)c4C)nn3)C2)c1 (single isomer, unassigned) [Example 120]
Output line: 0.6
